# test.target: CaRvs167
# assay.protocol: SPOT peptide array binding signal intensity (averaged, normalized) (arbitrary units (background-subtracted, floor 0; scale differs between SH3 domains)); higher = stronger binding of the SH3 domain to the peptide
Each record here notes measured SPOT peptide array binding signal intensity.
No unit in the answer, please; the number alone is enough.

// below: answered binders
{"binder": "LTRRFPFLFPFDTRM", "val": 10.2}
{"binder": "IKKRNKIRLPSGSPE", "val": 11.7}
{"binder": "NNFYRPLLRSVLVLL", "val": 3}

# evaluate next
Lookup: Need SPOT peptide array binding signal intensity, item `NFKRLLPRDPSEKSS`
Found: 6.33

Source listed as the supplement of paper PMC4466140.
